Recorded values, source the supplement of paper PMC9732359.

# method.summary: protein stability index of a GFP-peptide fusion (yeast GPS) (PSI 1-4); higher = more stable; sorted into four equal gates, so the index is relative within each strain
# condition.label: ubr1∆
Measured protein stability index of individual entries
Give the figure by itself; no unit, no explanation.

{"columns": ["input.sequence", "protein stability index"],
 "data": [
  ["LKKLKAMNDACYEKVLE [BRR2]", 3.05],
  ["ETKTKKEKIKGLQDEIM [SMC4]", 3.38],
  ["EQELAHILLTELLAYQF [FAS2]", 2.63],
  ["SVVRVLVHTQIRKTPLA [RPL3]", 1.54],
  ["EGKSVDELITEGNEKLA [RPP2A]", 3.45]
]}

Qu. State the recorded protein stability index for this entry: SVISGNLSLYEATAASH [CSN12]
Ans. 2.7

Qu. State the recorded protein stability index for this entry: LKVTKKHGAKKVAKRTK [RPL27A]
Ans. 3.18

Qu. State the recorded protein stability index for this entry: VSNSISRLGEENLPGLS [SNU114]
Ans. 1.07

Qu. State the recorded protein stability index for this entry: DVPAYNVTSFMPFWKFF [SRB8]
Ans. 1.56

Qu. State the recorded protein stability index for this entry: GFETSKNIKIIMATNRL [RPT6]
Ans. 3.28

Qu. State the recorded protein stability index for this entry: TANDRQINNVHLIPNEI [RPN4]
Ans. 2.94

Qu. State the recorded protein stability index for this entry: LQQQTPVTIWLFEQIGI [SME1]
Ans. 2

Qu. State the recorded protein stability index for this entry: MSLVVQEQGSFQHILRL [RPS18A]
Ans. 2.92

Qu. State the recorded protein stability index for this entry: KNLVKVLESRVNARDIP [CSN12]
Ans. 1.76

Qu. State the recorded protein stability index for this entry: VRLLCRSDGMGNVLLNA [YLR335W/NUP2]
Ans. 2.53

Qu. State the recorded protein stability index for this entry: IRSSSVSLVAEATSNTN [MED4]
Ans. 1.33

Qu. State the recorded protein stability index for this entry: KIYMLYSLQPSVDITGG [RPC34]
Ans. 2.27

Qu. State the recorded protein stability index for this entry: ESSHEQEEFVQFLQLDN [ECM29]
Ans. 3.29

Qu. State the recorded protein stability index for this entry: AKKKVLDVTKEAQANLL [RPO21]
Ans. 2.84

Qu. State the recorded protein stability index for this entry: SLELQSFQKIPLSRINE [YML103C/NUP188]
Ans. 2.88

Qu. State the recorded protein stability index for this entry: NFLIKLSELSPGIMLRQ [YCS4]
Ans. 2.95

Qu. State the recorded protein stability index for this entry: SALWSSRKGIAFGLGAI [ECM29]
Ans. 2.55

Qu. State the recorded protein stability index for this entry: VYREVCAACHSLDRVAW [CYT1]
Ans. 2.86
